FYI, the data here is from ChEMBL document CHEMBL4507326.

Target protein (sequence): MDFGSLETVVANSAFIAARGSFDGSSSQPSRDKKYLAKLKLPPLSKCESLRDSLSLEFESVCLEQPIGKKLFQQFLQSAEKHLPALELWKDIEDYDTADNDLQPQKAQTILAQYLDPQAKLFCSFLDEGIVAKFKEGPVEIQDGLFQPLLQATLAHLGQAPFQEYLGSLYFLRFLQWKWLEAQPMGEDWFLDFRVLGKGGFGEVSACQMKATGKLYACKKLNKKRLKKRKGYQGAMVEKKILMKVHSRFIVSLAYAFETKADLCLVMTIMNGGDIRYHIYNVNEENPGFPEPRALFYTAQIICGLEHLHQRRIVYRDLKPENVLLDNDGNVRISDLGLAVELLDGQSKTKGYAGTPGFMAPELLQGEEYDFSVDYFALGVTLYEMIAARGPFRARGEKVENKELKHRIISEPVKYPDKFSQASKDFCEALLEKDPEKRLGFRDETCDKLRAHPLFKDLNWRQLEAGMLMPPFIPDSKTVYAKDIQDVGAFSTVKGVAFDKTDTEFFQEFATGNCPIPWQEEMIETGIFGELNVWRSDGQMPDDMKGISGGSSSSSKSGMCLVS
assayMetric: IC50

Given item CN1C(=O)[C@@H](N2CCc3c(nn(Cc4ccccc4)c3Br)C2=O)COc2ccccc21 , the value recorded as its IC50 is 1000 nM
